Assay: Cellular Toxicity (caspase-3) BJ (AID 658);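 as to caspase-3 activation: cells exposed to compound for 16 hours; 0% = DMSO basal and 100% = 10 µM staurosporine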
Conditions: BJ fibroblasts, luminescence; caspase-3 activation; series mostly up to 91.7 µM
The source made the active and inactive calls. Calls follow the shape of the dose curve; as a rule, active = well fitted curve in the direction sought with a large enough effect; inconclusive = small, poorly fitted or top-dose-only effect, or another doubt; inactive = no such curve, though single readings can be large or run the other way.
Tick one outcome: yes = active, no = inactive

// known answers, use as guide
>  <compound>
CCCCO

>  <category.label>
no

$$$$
>  <compound>
Cc1ncc[nH]1

>  <category.label>
no

$$$$
>  <compound>
CC[C@H]1OC(=O)[C@H](C)[C@@H](O[C@H]2C[C@@](C)(OC)[C@@H](O)[C@H](C)O2)[C@H](C)[C@@H](O[C@@H]2O[C@H](C)C[C@H](N(C)C)[C@H]2O)[C@](C)(O)C[C@@H](C)CN(C)[C@H](C)[C@@H](O)[C@]1(C)O

>  <category.label>
no

$$$$
>  <compound>
C[C@H]1O[C@@H](O[C@H]2[C@@H](O)C[C@H](O[C@H]3[C@@H](O)C[C@H](O[C@H]4CC[C@@]5(C)[C@H](CC[C@@H]6[C@@H]5C[C@@H](O)[C@]5(C)[C@@H](C7=CC(=O)OC7)CC[C@]65O)C4)O[C@@H]3C)O[C@@H]2C)C[C@H](O)[C@@H]1O

>  <category.label>
no

$$$$
>  <compound>
COC(=O)c1ccccc1O

>  <category.label>
no

$$$$
>  <compound>
Oc1cccc(O)c1O

>  <category.label>
no

$$$$
>  <compound>
CO/N=C(/C(=O)N[C@@H]1C(=O)N2C(C(=O)O)=C(COC(N)=O)CS[C@H]12)c1ccco1

>  <category.label>
no

$$$$

Now consider a different compound.
## Input Per the records of this test, what outcome belongs to C=C1C(CCl)(CCl)C2(Cl)C(Cl)C(Cl)C1(Cl)C2(Cl)Cl (stereo not drawn) ?
## Output yes

* * *

Test system: CP335
Test: qHTS profiling for inhibitors of Plasmodium falciparum proliferation (AID 504749); also: nearly all actives have a fitted effect of over 60% in size
Details: P. falciparum in erythrocytes, SYBR Green DNA, 72 h; series mostly up to 28.7 µM
Inconclusive results are not listed. The source made the active and inactive calls. The call rests on the fitted dose curve; in most records, active means well fitted inhibition curve with a large enough effect; inconclusive means small, poorly fitted or top-dose-only effect; inactive means flat fitted curve, though single readings scatter.
Return exactly one item of class 1 (active), class 0 (inactive)

>  <mol.smiles>
OCl

>  <category.label>
class 0

$$$$
>  <mol.smiles>
OCC(O)CO

>  <category.label>
class 0

$$$$
>  <mol.smiles>
CC(C)OC(=O)Nc1ccc2nc(-c3cscn3)[nH]c2c1

>  <category.label>
class 0

$$$$
>  <mol.smiles>
CCC(=O)c1ccc2c(c1)N(CCCN1CCN(CCO)CC1)c1ccccc1S2

>  <category.label>
class 1

$$$$
>  <mol.smiles>
CCCCCCCCCCCC(=O)N(CCO)CCO

>  <category.label>
class 0

$$$$

## Input # fetch the recorded call for CCN(CC)C(=S)S here
## Output class 0

## Input Could you please tell me the result logged for O=C1c2ccccc2C(=O)C1c1ccc(F)cc1 in this assay?
## Output class 0

## Input Recorded test call requested for FC(F)(F)COCC(F)(F)F
## Output class 0

* * *

Tested on: DIV14
Experiment: qHTS profiling for inhibitors of Plasmodium falciparum proliferation (AID 504749); also: nearly all actives have a fitted effect of over 60% in size
Conditions: P. falciparum in erythrocytes, SYBR Green DNA, 72 h; series mostly up to 28.7 µM
Results filed as inconclusive are left out. Calls of active or inactive are those of the source. Calls come from the whole dose curve; as a rule, active = well fitted inhibition curve with a large enough effect; inconclusive = small, poorly fitted or top-dose-only effect; inactive = flat fitted curve, though single readings scatter.
Hello, when you answer, please use one of the following outcomes: TRUE (active), FALSE (inactive)

## Input How was CC(CNC(=O)c1cccnc1)NC(=O)c1cccnc1 (stereo unspecified) classified in this test?
## Output FALSE

## Input I'd appreciate the recorded outcome for Cc1cc(-c2ccc(N=Nc3ccc4c(S(=O)(=O)O)cc(S(=O)(=O)O)c(N)c4c3O)c(C)c2)ccc1N=Nc1ccc2c(S(=O)(=O)O)cc(S(=O)(=O)O)c(N)c2c1O from this test.
## Output FALSE

## Input # fetch the recorded call for C=C1C(CCl)(CCl)C2(Cl)C(Cl)C(Cl)C1(Cl)C2(Cl)Cl (stereo unspecified) here
## Output TRUE

* * *

Quick reference for max response among some compounds
Test: qHTS Assay for Lipid Storage Modulators (AID 1519)
Details: Drosophila S3 cells, BODIPY lipid droplet/cell ratio, laser cytometry; measured here: cell count channel max response; cells loaded with oleic acid
Records with an inconclusive call do not appear.
Answer in %, number only, no unit symbol.

The cases that follow already have their max response on record.
>  <compound>
CC(=O)Nc1ccc(OC(=O)c2ccccc2O)cc1

>  <max response, %>
14.6

$$$$
>  <compound>
O=C1c2ccccc2C(=O)c2c1ccc(O)c2O

>  <max response, %>
2.35

$$$$

## Input Using the record for NC(N)=O , report its max response.
## Output 16.8

## Input # query: max response of entry N#Cc1ccc2c(c1)N(CCCN1CCC(O)CC1)c1ccccc1S2
## Output 2.04

## Input What value of max response has been recorded for this entry: Cc1cccc(C)c1NC(=O)C1CCCCN1C (centres undefined)
## Output 19

## Input Name the recorded max response for CC(=O)Oc1cccc(C(=O)O)c1OC(C)=O .
## Output 10.5

## Input Value lookup for max response; key = CCSc1ccc2c(c1)N(CCCN1CCN(C)CC1)c1ccccc1S2
## Output -20.1

## Input Any idea what max response was measured for Nc1nccs1 ?
## Output -1.03

## Input Quick one: max response of CN1C(=O)OC(C)(C)C1=O ?
## Output 9.38

* * *

Assay: qHTS assay for environmental chemicals that activate the Aryl hydrocarbon Receptor (AhR) signaling pathway (AID 651777); also: % of control where 0% means no effect; nearly all actives have a fitted effect of over 15% in size
Details: 1A2-DRE human hepatoma cells, luciferase, 24 h; stronger effect = higher value
Records with an inconclusive call do not appear. Active and inactive are the calls of the source. Calls come from the whole dose curve; as a rule, active = well fitted activation curve with a large enough effect; inconclusive = small, poorly fitted or top-dose-only effect; inactive = flat fitted curve, though single readings scatter.
# activation per record follows

>  <mol.smiles>
CO[C@@H]1[C@H](OC(=O)/C=C/C=C/C=C/C=C/C(=O)O)CC[C@]2(CO2)[C@H]1[C@@]1(C)O[C@@H]1CC=C(C)C

>  <activation>
1.85% (inactive)

$$$$
>  <mol.smiles>
CC[C@H]1OC(=O)[C@H](C)[C@@H](O[C@H]2C[C@@](C)(OC)[C@@H](O)[C@H](C)O2)[C@H](C)[C@@H](O[C@@H]2O[C@H](C)C[C@H](N(C)C)[C@H]2O)[C@](C)(O)C[C@@H](C)CN(C)[C@H](C)[C@@H](O)[C@]1(C)O

>  <activation>
0.789% (inactive)

$$$$
>  <mol.smiles>
OC[C@H]1O[C@@](CO)(O[C@H]2O[C@H](CO)[C@@H](O)[C@H](O)[C@H]2O)[C@@H](O)[C@@H]1O

>  <activation>
1.69% (inactive)

$$$$
>  <mol.smiles>
Cc1ncc[nH]1

>  <activation>
0.165% (inactive)

$$$$

## Input I am curious: what activation value has been reported for CO/N=C(/C(=O)N[C@@H]1C(=O)N2C(C(=O)O)=C(COC(N)=O)CS[C@H]12)c1ccco1 ?
## Output -0.274% (inactive)

## Input Could you share which activation value was measured for CO ?
## Output -0.288% (inactive)

* * *

Tested on: CP305
Assay: qHTS profiling for inhibitors of Plasmodium falciparum proliferation (AID 504749); also: nearly all actives have a fitted effect of over 60% in size
Details: P. falciparum in erythrocytes, SYBR Green DNA, 72 h; series mostly up to 28.7 µM
Records with an inconclusive call do not appear. Activity calls are given as the source filed them. Calls come from the whole dose curve; as a rule, active = well fitted inhibition curve with a large enough effect; inconclusive = small, poorly fitted or top-dose-only effect; inactive = flat fitted curve, though single readings scatter.
Just give me one of these, please: active, inactive

>  <molecule>
O=C(O)c1ccc(NC(=O)[C@H](Cc2ccc(O)cc2)NC(=O)c2ccccc2)cc1

>  <category.label>
inactive

$$$$
>  <molecule>
CC1CCCCN1CCCOC(=O)c1ccccc1 (stereo not given)

>  <category.label>
inactive

$$$$
>  <molecule>
O=C1c2ccccc2CN2C(=O)c3ccccc3CN12

>  <category.label>
inactive

$$$$
>  <molecule>
CC1CC(O)CC(C)(C)C1 (stereo not given)

>  <category.label>
inactive

$$$$
>  <molecule>
O=S(=O)(O)CCCS(=O)(=O)O

>  <category.label>
inactive

$$$$

## Input Look up the recorded call for O=P(O)(O)OP(=O)(O)O in this test.
## Output inactive

## Input // return assay outcome for CNC(=O)C[C@@H](N)C(=O)N[C@@H](C(=O)N[C@@H]1C(=O)N2[C@@H]1SC(C)(C)[C@@H]2C(=O)O)c1ccc(O)cc1
## Output inactive

## Input # lookup: test call for CCCCCCCCCC(=O)NO
## Output inactive

## Input Identify the outcome logged in this assay for the molecule shown: CC(O)CN(C)C (stereo not given)
## Output inactive

* * *

Tested on: CP192
Experiment: qHTS profiling for inhibitors of Plasmodium falciparum proliferation (AID 504749); also: nearly all actives have a fitted effect of over 60% in size
Settings: P. falciparum in erythrocytes, SYBR Green DNA, 72 h; series mostly up to 28.7 µM
Inconclusive results are not listed. Activity calls are given as the source filed them. Calls come from the whole dose curve; as a rule, active = well fitted inhibition curve with a large enough effect; inconclusive = small, poorly fitted or top-dose-only effect; inactive = flat fitted curve, though single readings scatter.
Thanks in advance; please answer with one of these: active, inactive

// below: answered compounds
>  <compound>
CCCOC(=O)c1ccccc1O

>  <measured.on>
CP192

>  <category.label>
inactive

$$$$
>  <compound>
CC1(C)S[C@@H]2[C@H](NC(=O)C3(N)CCCCC3)C(=O)N2[C@H]1C(=O)O

>  <measured.on>
CP192

>  <category.label>
inactive

$$$$
>  <compound>
Cc1cccc(C)c1NC(=O)NC1=CCCN1C

>  <measured.on>
CP192

>  <category.label>
inactive

$$$$
>  <compound>
CC(C)CCC[C@@H](C)[C@H]1CC[C@H]2[C@@H]3CC[C@@H]4C[C@H](O)CC[C@]4(C)[C@H]3CC[C@]12C

>  <measured.on>
CP192

>  <category.label>
inactive

$$$$
>  <compound>
CCN(CC)CCOC(=O)c1cccnc1

>  <measured.on>
CP192

>  <category.label>
inactive

$$$$

## Input What call does the record list for CC(C)CCC[C@@H](C)[C@H]1CC[C@H]2[C@@H]3CC=C4C[C@@H](O)CC[C@]4(C)[C@H]3CC[C@]12C ?
## Output inactive

## Input Test call, this compound: Cc1cc(-c2ccc(N=Nc3ccc4c(S(=O)(=O)O)cc(S(=O)(=O)O)c(N)c4c3O)c(C)c2)ccc1N=Nc1ccc2c(S(=O)(=O)O)cc(S(=O)(=O)O)c(N)c2c1O
## Output inactive

## Input What call does the record list for CC(=O)Oc1cccc(C(=O)O)c1OC(C)=O ?
## Output inactive

## Input What classification did CCCCO end up with in this test?
## Output inactive

## Input Query: recorded result category for C#C[C@]1(O)CC[C@@H]2[C@H]3CCC4=CC(=O)CC[C@H]4[C@H]3C(=C)C[C@@]21CC in this test
## Output active

## Input What did the test return for O=C(O)C1=C(CSc2nnnn2CS(=O)(=O)O)CS[C@@H]2[C@H](NC(=O)[C@H](O)c3ccccc3)C(=O)N12 ?
## Output inactive

## Input Identify the outcome logged in this assay for the compound shown: O=S(=O)(O)CCCS(=O)(=O)O
## Output inactive

## Input Test call for this compound, please: CC1=C(/C=C/C(C)=C/C=C/C(C)=C/C(=O)Oc2c(C)c(C)c3c(c2C)CC[C@@](C)(CCC[C@H](C)CCC[C@H](C)CCCC(C)C)O3)C(C)(C)CCC1
## Output inactive

## Input Identify the outcome logged in this assay for the compound shown: CC12CCC(C[N+](C)(CCC[N+](C)(C)C)C1)C2(C)C (stereo not given)
## Output inactive

## Input Status in this test for Cc1cc2nc3c(=O)[nH]c(=O)nc-3n(C[C@H](O)[C@H](O)[C@H](O)COP(=O)(O)OP(=O)(O)OC[C@H]3O[C@@H](n4cnc5c(N)ncnc54)[C@H](O)[C@@H]3O)c2cc1C ?
## Output inactive

## Input Which outcome did this test record for the compound C[C@H](N)C(=O)N[C@@H](C)P(=O)(O)O ?
## Output inactive
